# test: Plasma pharmacokinetics of BMS-188797 in patients, cycle 1 (HPLC, noncompartmental analysis)
# Type: in vivo, human
# test_parameters: human, plasma, intravenous, 150 mg, mean±s.d. of the three dose groups (80, 110, 150 mg m−2), cycle 1; read-out: terminal half-life (converted)
measured_endpoint: half-life (h)
Your answer is read as h, so omit the unit and give the number.

Q: What measured half-life goes with COC(=O)O[C@@]12CO[C@@H]1C[C@H](O)[C@@]1(C)C(=O)[C@H](OC(C)=O)C3=C(C)[C@@H](OC(=O)[C@H](O)[C@@H](NC(=O)c4ccccc4)c4ccccc4)C[C@@](O)([C@@H](OC(=O)c4ccccc4)[C@H]21)C3(C)C [BMS-188797] ?
A: 30.8

###

# test: Plasma pharmacokinetics of BMS-188797 in patients, cycle 1 (HPLC, noncompartmental analysis)
# Assay type: in vivo, human
# test_parameters: human, plasma, intravenous, 110 mg m−2 1-h infusion with cisplatin 75 mg m−2, cycle 1, n=12, mean±s.d.; read-out: t1/2 (converted)
measured_endpoint: half-life (min)
Express the result in min but write the number alone.

Q: # get_value(readout='half-life', item= COC(=O)O[C@@]12CO[C@@H]1C[C@H](O)[C@@]1(C)C(=O)[C@H](OC(C)=O)C3=C(C)[C@@H](OC(=O)[C@H](O)[C@@H](NC(=O)c4ccccc4)c4ccccc4)C[C@@](O)([C@@H](OC(=O)c4ccccc4)[C@H]21)C3(C)C )
A: 1840

###

# test: Plasma pharmacokinetics of BMS-188797 in patients, cycle 1 (HPLC, noncompartmental analysis)
# Assay type: in vivo, human
# test_parameters: human, plasma, intravenous, 80 mg m−2 1-h infusion with cisplatin 75 mg m−2, cycle 1, n=3, mean±s.d.
measured_endpoint: AUC(0-inf)
Answer with the value and then the unit.

Q: // AUC(0-inf) lookup, key: COC(=O)O[C@@]12CO[C@@H]1C[C@H](O)[C@@]1(C)C(=O)[C@H](OC(C)=O)C3=C(C)[C@@H](OC(=O)[C@H](O)[C@@H](NC(=O)c4ccccc4)c4ccccc4)C[C@@](O)([C@@H](OC(=O)c4ccccc4)[C@H]21)C3(C)C
A: 4000 ng·h/mL
